Where do these numbers come from? They come from patent US20240368149A1.

Assay info: Rat PK: plasma xanomeline after subcutaneous (SC) dosing of xanomeline, prodrugs or pamoate salts at 5 mg/kg or 3.5 mg/kg (Example A-2)
Format: in vivo, male Sprague-Dawley (SD) rats
Condition: male, Sprague-Dawley, plasma, sc, parent xanomeline dosed SC, Mean, read-out: Xanomeline (SC) AUC0-last
Measured endpoint: AUC(0-t)

Given the entry CCCCCCOc1nsnc1C1=CCCN(C)C1 [Xanomeline] , report its measured AUC(0-t).
171 ng·h/mL

---

Assay info: Rat PK: plasma prodrug concentration after intravenous (IV) dosing of xanomeline prodrugs at 1 mg/kg (Example A-6)
Format: in vivo, male Sprague-Dawley (SD) rats
Condition: male, Sprague-Dawley, iv, 1 mg/kg, analyte prodrug, IV 1 mg/kg of xanomeline, individual animals, read-out: Prodrug AUCINF_obs
Measured endpoint: AUC(0-inf)
Provide a numeric answer, followed by its unit.

Given the entry CCCCCCOc1nsnc1C1=CCC[N+](C)(C(C)OC(=O)C(C)(C)C)C1 (stereo not shown) [Compound 19] , report its measured AUC(0-inf).
27.1 ng·h/mL
